tgt: Amine oxidase [flavin-containing] A (Homo sapiens, UniProt P21397)
Sequence (P21397 whole entry): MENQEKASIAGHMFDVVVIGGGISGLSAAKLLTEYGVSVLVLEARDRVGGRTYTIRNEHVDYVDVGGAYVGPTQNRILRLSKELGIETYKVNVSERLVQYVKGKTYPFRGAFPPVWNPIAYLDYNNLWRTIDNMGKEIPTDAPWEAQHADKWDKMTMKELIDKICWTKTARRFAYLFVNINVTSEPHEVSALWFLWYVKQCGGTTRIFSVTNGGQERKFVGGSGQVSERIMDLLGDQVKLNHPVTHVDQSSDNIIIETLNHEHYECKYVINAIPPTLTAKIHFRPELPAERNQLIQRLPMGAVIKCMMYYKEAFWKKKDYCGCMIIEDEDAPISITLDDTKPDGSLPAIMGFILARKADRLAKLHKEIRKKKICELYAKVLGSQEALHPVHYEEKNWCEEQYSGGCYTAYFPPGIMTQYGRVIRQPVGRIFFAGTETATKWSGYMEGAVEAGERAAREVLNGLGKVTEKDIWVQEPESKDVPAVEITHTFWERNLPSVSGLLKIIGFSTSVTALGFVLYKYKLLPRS
assay.remarks: Inhibition of human MAO-A using p-tyramine as substrate assessed as production of H2O2 from p-tyramine at 100 uM incubated for 15 mins by Amplex Red MAO assay
experimental.conditions: 0.25 h
quantity.kind: inhibition at 100 µM (%)

[
  {
    "molecule": "O=C1CCOc2cc(OCc3cccc(Br)c3)ccc21",
    "unit.text": "%",
    "inhibition at 100 µM": 28
  },
  {
    "molecule": "N#Cc1ccc(COc2ccc3c(c2)OCCC3=O)cc1",
    "unit.text": "%",
    "inhibition at 100 µM": 27
  },
  {
    "molecule": "CC1(C)CC(=O)c2ccc(OCc3ccc(F)cc3)cc2O1",
    "unit.text": "%",
    "inhibition at 100 µM": 25
  }
]
